Just for reference, BindingDB's records for doi:10.7270/Q2930RSV is where these values come from.

Target chain: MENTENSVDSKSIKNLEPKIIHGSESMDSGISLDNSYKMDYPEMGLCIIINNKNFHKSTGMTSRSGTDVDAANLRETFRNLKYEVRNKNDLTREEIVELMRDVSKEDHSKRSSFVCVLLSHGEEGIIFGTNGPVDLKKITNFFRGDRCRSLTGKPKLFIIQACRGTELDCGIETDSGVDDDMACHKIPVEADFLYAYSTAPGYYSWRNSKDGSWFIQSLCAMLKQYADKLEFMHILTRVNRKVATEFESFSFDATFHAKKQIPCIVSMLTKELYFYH
Parameter: IC50

### Prompt Reported IC50, compound COC(=O)c1ccc(C)cc1C1CN=NC12Cc1cc(C)ccc1C2=O (stereo not drawn) : ____
### Response > 100 µM

### Prompt Reported IC50, compound O=C(COC(=O)c1ccc([N+](=O)[O-])s1)NCCc1ccccc1 [MLS002159124] : ____
### Response > 100 µM

### Prompt Reported IC50, compound O=[N+]([O-])c1ccc(-n2[n-]c(=[N+]3CCOCC3)cc2O)cc1 : ____
### Response > 100 µM

### Prompt Reported IC50, compound COc1ccc(-c2csc(CCn3[nH]c(C)cc3=O)n2)cc1 [SMR000347900] : ____
### Response > 100 µM

### Prompt Reported IC50, compound CN(C)c1cc(N=NCc2ccccc2)nc(N(C)C)n1 : ____
### Response 50.7 µM

### Prompt Reported IC50, compound N#CC1(CCCN2CCCCC2)c2ccccc2CCc2ccccc21 [MLS001178552] : ____
### Response > 100 µM

### Prompt Reported IC50, compound NS(=O)(=O)c1ccc(CCNC(=O)COC(=O)c2ccc([N+](=O)[O-])o2)cc1 : ____
### Response > 100 µM

### Prompt Reported IC50, compound CC1(C)Cc2c(nn(-c3ccccc3)c(=N)c2C#N)CO1 : ____
### Response 1.09 µM

***
### Prompt Reported IC50, compound O=C(CCc1ccccc1)NNc1cc(N2CCCCC2)nc(N2CCCCC2)n1 : ____
### Response > 100 µM

### Prompt Reported IC50, compound CCN(CC)c1ccc(NC2CC(=O)N(CCc3ccc(OC)cc3)C2=O)cc1 (stereo not drawn) : ____
### Response > 100 µM

### Prompt Reported IC50, compound CN(C)c1ccc(NC(=O)c2ccc(Cn3cc([N+](=O)[O-])cn3)cc2)cc1 [MLS000727576] : ____
### Response > 100 µM

### Prompt Reported IC50, compound CCCCOc1cc(NCc2ccccc2)c2ncn(C(C)C)c2c1 : ____
### Response > 100 µM

### Prompt Reported IC50, compound Cc1[nH]n(-c2ccccc2)c(=O)c1S(=O)(=O)c1ccccc1 : ____
### Response > 100 µM
